- PROCEDURE_SUMMARY: Biliary excretion in rats after a single oral administration of 50 mg/kg
- RUN_CONDITIONS: rat, in vivo, po, 50 mg/kg
PROPERTY_MEASURED: concentration at 24 h (ng/mL)
The response must be a number in ng/mL with no trailing unit.

CCn1cc(C(=O)O)c(=O)c2cc(F)c(N3CCNCC3)cc21; 18900

Shift focus to the following entry.
Task item: Param item = `CCn1cc(C(=O)O)c(=O)c2cnc(N3CCNCC3)nc21` ; retrieve measured concentration at 24 h.
Reply: 10200

====

- PROCEDURE_SUMMARY: Serum concentrations at 30 min. after a single oral administration in rats
- RUN_CONDITIONS: rat, 25 mg/kg
PROPERTY_MEASURED: concentration at 0.5 h
Your answer should be a number followed by the unit of measure.

Task item: Param item = `CCn1cc(C(=O)O)c(=O)c2cc(F)c(N3CCNCC3)cc21` ; retrieve measured concentration at 0.5 h.
Reply: 310 ng/mL

Source of measurements: patent US4146719A
